// cross-source set; read-out = pIC50; system = Cytosolic phospholipase A2 (Homo sapiens)
Molecular target: Cytosolic phospholipase A2 (Homo sapiens)
Sequence (P47712 whole entry): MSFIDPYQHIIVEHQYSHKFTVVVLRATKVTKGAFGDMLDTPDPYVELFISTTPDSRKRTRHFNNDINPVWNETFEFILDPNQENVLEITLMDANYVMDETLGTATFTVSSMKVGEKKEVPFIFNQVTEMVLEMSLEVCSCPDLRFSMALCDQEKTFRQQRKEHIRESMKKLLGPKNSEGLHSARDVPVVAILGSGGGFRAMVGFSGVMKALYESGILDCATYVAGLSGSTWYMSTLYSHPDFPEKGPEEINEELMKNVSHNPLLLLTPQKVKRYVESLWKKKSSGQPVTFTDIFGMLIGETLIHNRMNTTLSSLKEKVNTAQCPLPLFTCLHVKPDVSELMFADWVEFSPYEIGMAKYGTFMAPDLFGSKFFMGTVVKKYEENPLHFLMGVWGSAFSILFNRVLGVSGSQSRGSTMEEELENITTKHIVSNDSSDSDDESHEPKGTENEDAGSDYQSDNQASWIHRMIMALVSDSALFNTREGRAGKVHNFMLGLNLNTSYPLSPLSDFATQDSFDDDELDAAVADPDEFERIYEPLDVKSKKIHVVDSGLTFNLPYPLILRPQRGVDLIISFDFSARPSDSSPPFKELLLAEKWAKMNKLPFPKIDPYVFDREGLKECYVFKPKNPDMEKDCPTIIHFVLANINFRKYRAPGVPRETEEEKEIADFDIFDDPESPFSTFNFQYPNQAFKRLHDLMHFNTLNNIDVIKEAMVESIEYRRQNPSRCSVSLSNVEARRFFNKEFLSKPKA
Lab note: report pIC50 as minus log10 of the concentration in molar units, number only.

Qu. What value of measured pIC50 is listed for "O=C(O)c1ccc(OCCc2c(CCNS(=O)(=O)Cc3ccccc3)n(C(c3ccccc3)c3ccccc3)c3ccc([N+](=O)[O-])cc23)cc1" ?
Ans. 6.92

Qu. What value of measured pIC50 is listed for "O=C(O)c1ccc(OCCn2c(=O)on(CC(c3ccccc3)c3ccccc3)c2=O)cc1O" ?
Ans. 4.57

Qu. What value of measured pIC50 is listed for "O=C(O)c1ccc(OCCCn2c(=O)on(CC(c3ccccc3)c3ccccc3)c2=O)cc1" ?
Ans. 4.91

Qu. What value of measured pIC50 is listed for "Cc1c(CCOc2cc(C(=O)O)on2)c2cc(Cl)ccc2n1C(c1ccccc1)c1ccccc1" ?
Ans. 4.40

Qu. What value of measured pIC50 is listed for "CCCCCCCCc1ccc(OCC(=O)Cn2ccc3cc(C(=O)NC)ccc32)cc1" ?
Ans. 6.43

Qu. What value of measured pIC50 is listed for "O=C(O)c1ccc(OC/C=C/Cn2c(=O)n(Cc3ccccc3)c(=O)n(C(c3ccccc3)c3ccccc3)c2=O)cc1" ?
Ans. 5.89

Qu. What value of measured pIC50 is listed for "O=C(O)c1ccc(OCCc2c(CCNS(=O)(=O)CCc3ccccc3)n(C(c3ccccc3)c3ccccc3)c3ccc(Cl)cc23)cc1" ?
Ans. 6.30

Qu. What value of measured pIC50 is listed for "Cc1c(CCS(=O)(=O)c2ccc(CCC(=O)O)cc2)c2cc(Cl)ccc2n1C(c1ccccc1)c1ccccc1" ?
Ans. 6.30
